Source of measurements: PubChem BioAssay AID248

# Tested on: L1210 leukemia ip in BDF1 mice, survival T/C
# PROCEDURE_DETAILS: NCI In Vivo Anticancer Drug Screen. Data for tumor model L1210 Leukemia (intraperitoneal) in B6D2F1 (BDF1) mice
# CONDITION_CONTEXT: endpoint: mean survival time; dose: 50.0 mg/kg/injection; schedule: Q01DX001 (ip); vehicle: carboxymethylcellulose (CMC); higher = longer survival
Inconclusive results and toxic doses are left out.
ENDPOINT_LABEL: T/C

Input line: Quick one: T/C for "Nc1nc(N)nc(CCc2nc(N)nc(N)n2)n1" ?
Output line: 95 % of control

Input line: Quick one: T/C for "CC(=O)c1cccc2c(C(C)=O)cccc12" ?
Output line: 105 % of control

Input line: Quick one: T/C for "CCCCCC#CCCCCl" ?
Output line: 101 % of control

Input line: Quick one: T/C for "Cc1ncc(CC#N)c2c1OC(C)(C)OC2" ?
Output line: 101 % of control
